Assay: Clearance in human liver microsomes measured per mg protein by LC-MS/MS analysis
Assay type: ADME, Microsome
Details: read-out: CLH
endpoint-name: microsomal CLint (µL/min/mg)

{"record-smiles": "O=C(Nc1ccc(N2CCNCC2)cc1)c1n[nH]cc1Nc1cc(Oc2ccccc2)ncn1", "endpoint-name": "microsomal CLint", "unit-symbol": "µL/min/mg", "endpoint-result": 7.4}

---

Molecular target: UniProt P24941
Test: Inhibition of human CDK2 assessed as enzyme activity at 0.123 uM pretreated for 20 mins followed by [gamma-33P]-ATP addition and measured after 120 mins in presence of 10 uM ATP by radiometric Hot-SpotSM Kinase assay
Set-up: scale not given: the % may be the effect or the level left
Details: time 140.0 min
Below is a list of entries, each paired with its recorded Activity value.

{"record-smiles": "Cc1cc(Oc2ccccc2)nc(Nc2c[nH]nc2C(=O)Nc2ccc(N3CCNCC3)cc2)n1", "Activity (%)": 78.3}
{"record-smiles": "O=C(Nc1ccc(N2CCOCC2)cc1)c1n[nH]cc1Nc1cc(C2CCCC2)ncn1", "Activity (%)": 83.3}
{"record-smiles": "O=C(Nc1ccc(N2CCNCC2)cc1)c1n[nH]cc1Nc1cc(C2CCCCCC2)ncn1", "Activity (%)": 84.8}
{"record-smiles": "O=C(Nc1ccc(N2CCNCC2)cc1)c1n[nH]cc1Nc1cc(OC2CCCCC2)ncn1", "Activity (%)": 53.1}
{"record-smiles": "O=C(Nc1ccc(N2CCNCC2)cc1)c1n[nH]cc1Nc1cc(NC2CCCC2)ncn1", "Activity (%)": 69.5}
{"record-smiles": "Cc1nc(Nc2c[nH]nc2C(=O)Nc2ccc(N3CCNCC3)cc2)cc(Oc2ccccc2)n1", "Activity (%)": 82.3}
{"record-smiles": "O=C(Nc1ccc(N2CCNCC2)cc1)c1n[nH]cc1Nc1cc(C2=CCOCC2)ncn1", "Activity (%)": 76.5}
{"record-smiles": "CN1CCN(Cc2ccc(NC(=O)c3n[nH]cc3Nc3cc(C4CCCC4)ncn3)cc2)CC1", "Activity (%)": 78.8}
{"record-smiles": "O=C(Nc1ccc(CN2CCOCC2)cc1)c1n[nH]cc1Nc1cc(C2CCCC2)ncn1", "Activity (%)": 71.4}
{"record-smiles": "Cc1cnc(Nc2c[nH]nc2C(=O)Nc2ccc(N3CCNCC3)cc2)nc1Oc1ccccc1", "Activity (%)": 88.6}
{"record-smiles": "O=C(Nc1ccc(N2CCNCC2)cc1)c1n[nH]cc1Nc1cc(OCC2CCCC2)ncn1", "Activity (%)": 51}
{"record-smiles": "O=C(Nc1ccc(N2CCNCC2)cc1)c1n[nH]cc1Nc1cc(OC2CCCCCC2)ncn1", "Activity (%)": 54.6}
{"record-smiles": "O=C(Nc1ccc(N2CCNCC2)cc1)c1n[nH]cc1Nc1cc(-c2ccccc2)ncn1", "Activity (%)": 89.3}
{"record-smiles": "O=C(Nc1ccc(N2CCNCC2)cc1)c1n[nH]cc1Nc1cc(-c2ccoc2)ncn1", "Activity (%)": 83.5}
{"record-smiles": "O=C(Nc1ccc(N2CCNCC2)cc1)c1n[nH]cc1Nc1cc(C2CCCC2)ncn1", "Activity (%)": 79.3}

---

Experiment: Oral bioavailability in Beagle dog at […]
Assay type: ADME, organism-based, Canis lupus familiaris
Conditions: in vivo, dose 1.5 mg/kg

{"record-smiles": "O=C(Nc1ccc(N2CCNCC2)cc1)c1n[nH]cc1Nc1cc(Oc2ccccc2)ncn1", "bioavailability": "72.7%"}

Data provenance: ChEMBL document CHEMBL5370533
